# measured-on: Human Calpain 2/NS1 (Homo sapiens, UniProt P17655)
# Sequence (P17655 1-700): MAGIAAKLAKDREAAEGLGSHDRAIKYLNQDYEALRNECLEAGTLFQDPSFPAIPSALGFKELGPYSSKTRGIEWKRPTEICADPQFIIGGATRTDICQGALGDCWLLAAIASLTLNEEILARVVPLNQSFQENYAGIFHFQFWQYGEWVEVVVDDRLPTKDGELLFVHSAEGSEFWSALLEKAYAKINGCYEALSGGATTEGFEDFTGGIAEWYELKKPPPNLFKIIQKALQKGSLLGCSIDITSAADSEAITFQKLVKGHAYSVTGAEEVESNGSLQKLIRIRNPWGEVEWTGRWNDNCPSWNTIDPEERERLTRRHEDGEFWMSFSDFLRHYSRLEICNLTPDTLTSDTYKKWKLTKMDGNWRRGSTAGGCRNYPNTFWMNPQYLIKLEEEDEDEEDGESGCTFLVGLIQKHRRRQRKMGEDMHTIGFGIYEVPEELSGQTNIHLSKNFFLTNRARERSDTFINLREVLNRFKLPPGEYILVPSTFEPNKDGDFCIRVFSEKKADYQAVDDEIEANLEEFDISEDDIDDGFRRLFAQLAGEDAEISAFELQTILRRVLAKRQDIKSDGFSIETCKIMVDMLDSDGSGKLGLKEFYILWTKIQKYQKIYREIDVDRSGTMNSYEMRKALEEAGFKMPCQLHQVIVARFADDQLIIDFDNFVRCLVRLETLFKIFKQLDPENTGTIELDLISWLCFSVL
# Sequence (P04632 1-268 partner): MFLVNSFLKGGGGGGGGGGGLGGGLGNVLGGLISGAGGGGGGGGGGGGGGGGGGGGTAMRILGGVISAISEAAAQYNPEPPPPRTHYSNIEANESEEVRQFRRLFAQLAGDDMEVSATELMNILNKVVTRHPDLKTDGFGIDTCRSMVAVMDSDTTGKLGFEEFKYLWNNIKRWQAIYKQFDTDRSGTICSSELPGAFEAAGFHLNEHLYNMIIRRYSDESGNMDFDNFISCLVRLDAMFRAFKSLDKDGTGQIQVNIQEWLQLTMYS
# protocol-details: Calpain inhibition continuous fluorescence (FRET) assay, Human Calpain 2/NS1
# Format: biochemical
# test-conditions: Column B; read-out: Human Calpain 2/NS1 IC50
pIC50: −log10 of the molar value.
value-kind: pIC50

1) Cc1nc(-c2ccccc2)c(C(=O)N[C@@H](Cc2ccccc2)C(=O)C(N)=O)o1 | > 5.52
2) Cc1cc(C(=O)N[C@@H](Cc2ccccc2)C(=O)C(N)=O)c(-c2ccccc2)s1 | > 5.52
3) NC(=O)C(=O)[C@H](Cc1ccccc1)NC(=O)c1ccnn1-c1ccccc1 | > 5.52
4) Cc1cc(C(=O)N[C@@H](Cc2ccccc2)C(=O)C(N)=O)n(-c2ncc(-c3ccccc3)o2)n1 | > 5.52
5) Cc1noc(-n2ccc(-c3ccccc3)n2)c1C(=O)N[C@@H](Cc1ccccc1)C(=O)C(N)=O | > 5.52

Q. Annotate the compound "Cc1cc(C(=O)N[C@@H](Cc2ccccc2)C(=O)C(=O)NC2CC2)n(-c2ncccn2)n1" with its measured pIC50.
A. < 5.00

Q. Answer with reported pIC50 of "Cc1cc(C(=O)N[C@@H](Cc2ccccc2)C(=O)C(N)=O)n(-c2cccc(CNC(=O)Cc3ccccc3)c2)n1"
A. > 5.52

Q. Answer with reported pIC50 of "O=C(NC1CC1)C(=O)[C@H](Cc1ccccc1)NC(=O)c1cncn1-c1n[nH]c2ccccc12"
A. 5.00 to 5.52

Q. Identify measured pIC50 corresponding to "NC(=O)C(=O)[C@H](Cc1ccccc1)NC(=O)c1cn(C2CC2)nc1-c1ccccc1"
A. > 5.52

Q. Return value of pIC50 for input "Cn1cc(C(=O)N[C@@H](Cc2ccccc2)C(=O)C(N)=O)c(-c2cccc(C#N)c2)n1" , no commentary.
A. 5.00 to 5.52

====

Examples of molecules with documented IC50 follow.
# Tested on: Calpain activity in SH-SY5Y cells
# protocol-details: SH-SY5Y + AMC fluorescence assay (Suc-LLVY-AMC substrate)
# Format: cell-based
# test-conditions: read-out: SH-SY5Y + AMC IC50

1) Cc1occ(C(=O)N[C@@H](Cc2ccccc2)C(=O)C(N)=O)c1-c1ccccc1 [Compound 430] | < 10 µM
2) Cc1nc(-c2ccccc2)c(C(=O)N[C@H](C=O)Cc2ccccc2)o1 [Compound 322] | > 25 µM
3) C#CC[C@H](NC(=O)c1cn(C)nc1-c1ccccc1F)C(=O)C(N)=O [Compound 574] | > 25 µM
4) NC(=O)C(=O)C(Cc1ccccc1)NC(=O)c1cn(C(F)F)nc1-c1cccc(F)c1 (centres unmarked) [Compound 381] | < 10 µM
5) Cn1cc(C(=O)NC(C=O)c2ccccc2C(F)(F)F)c(-c2ccccc2F)n1 (centres unmarked) [Compound 519] | > 25 µM
6) NC(=O)C(=O)C(Cc1ccccc1)NC(=O)c1nsnc1-c1ccc(CNC(=O)c2ccc(F)cc2)cc1 (centres unmarked) [Compound 363] | > 25 µM
7) Cn1cc(C(=O)N[C@@H](CC(C)(C)C)C(=O)C(N)=O)c(-c2ccccc2)n1 [Compound 416] | > 25 µM
8) NC(=O)C(=O)[C@H](Cc1ccccc1)NC(=O)[C@@H]1CCCN1c1ccccc1 [Compound 308] | > 25 µM
9) Cn1cc(C(=O)N[C@H](C(=O)C(N)=O)C2Cc3ccccc3C2)c(-c2ccccc2F)n1 [Compound 553] | < 10 µM
10) Cc1c(F)cccc1-c1oncc1C(=O)NC(Cc1ccccc1)C(=O)C(N)=O (centres unmarked) [Compound 594] | < 10 µM

Q. Answer with the recorded IC50 of Cc1cccc(-c2oncc2C(=O)NC(Cc2ccccc2)C(=O)C(N)=O)c1F (centres unmarked) [Compound 584] only.
A. 10 to 25 µM

====

Here the recorded pIC50 is given for each entry.
# measured-on: Human Calpain 9/NS1 (Homo sapiens)
# Sequence (O14815 whole entry, one chain of several): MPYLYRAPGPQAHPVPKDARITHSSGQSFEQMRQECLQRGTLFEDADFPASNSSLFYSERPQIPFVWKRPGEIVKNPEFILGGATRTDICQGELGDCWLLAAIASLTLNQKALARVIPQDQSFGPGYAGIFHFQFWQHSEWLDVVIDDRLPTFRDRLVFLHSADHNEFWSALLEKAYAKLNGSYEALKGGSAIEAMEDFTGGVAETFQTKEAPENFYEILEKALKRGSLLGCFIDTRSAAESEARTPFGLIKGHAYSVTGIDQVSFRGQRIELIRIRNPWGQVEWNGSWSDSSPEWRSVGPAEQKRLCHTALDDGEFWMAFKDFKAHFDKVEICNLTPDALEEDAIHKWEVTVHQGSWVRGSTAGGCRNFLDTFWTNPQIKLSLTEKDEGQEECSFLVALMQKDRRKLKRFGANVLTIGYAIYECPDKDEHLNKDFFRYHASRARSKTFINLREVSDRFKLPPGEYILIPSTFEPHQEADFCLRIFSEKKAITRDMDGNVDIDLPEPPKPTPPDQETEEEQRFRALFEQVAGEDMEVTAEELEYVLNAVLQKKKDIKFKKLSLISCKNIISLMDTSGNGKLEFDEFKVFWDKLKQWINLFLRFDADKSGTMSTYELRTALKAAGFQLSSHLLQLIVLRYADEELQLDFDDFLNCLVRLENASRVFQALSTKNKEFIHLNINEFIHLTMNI
# protocol-details: Calpain inhibition continuous fluorescence (FRET) assay, Human Calpain 9/NS1
# Assay type: biochemical
# test-conditions: Column C; read-out: Human Calpain 9/NS1 IC50
pIC50: −log10 of the molar value.

Known pIC50 results, listed for orientation:
1. Cn1cc(C(=O)NC(Cc2ccccc2)C(=O)C(N)=O)c(-c2cccc(C(F)(F)F)n2)n1 (stereo not shown) | > 5.52
2. CC(C)(C)c1cc(C(=O)N[C@@H](Cc2ccccc2)C(=O)C(=O)NC2CC2)n(-c2ccccc2)n1 | < 5.00
3. O=C(NC1CC1)C(=O)[C@H](Cc1ccccc1)NC(=O)c1cncn1-c1ccc(-c2ncco2)cn1 | 5.00 to 5.52
4. Cn1cc(C(=O)N[C@@H](Cc2ccccc2)C(=O)C(N)=O)c(-c2ccccc2F)n1 | > 5.52
5. Cc1cc(C(=O)N[C@@H](Cc2ccccc2)C(=O)C(N)=O)n(-c2cccc(-c3ccccc3F)c2)n1 | > 5.52

Now let's try a different one.
Q. Could you please provide reported pIC50 for "Cc1cc(C(=O)N[C@@H](Cc2ccccc2)C(=O)C(N)=O)n(-c2ccc(-c3ccccc3C)cc2)n1" ? Thanks!
A. > 5.52

====

# measured-on: Human Calpain 1/NS1 (Homo sapiens)
# protocol-details: Calpain inhibition continuous fluorescence (FRET) assay, Human Calpain 1/NS1
# Assay type: biochemical
# test-conditions: Column A; read-out: Human Calpain 1/NS1 IC50
pIC50: −log10 of the molar value.
Recorded pIC50, one value per entry.

1) Cc1cc(-n2nc(C(=O)N[C@@H](Cc3ccccc3)C(=O)C(N)=O)cc2C)nc(C)n1 | < 5.00
2) Cn1cc(C(=O)N[C@@H](Cc2ccccc2)C(=O)C(N)=O)c(-c2cccc(Cl)c2)n1 | > 5.52
3) NC(=O)C(=O)[C@H](Cc1ccccc1)NC(=O)c1scnc1-c1ccccc1 | > 5.52

Q. Could you please provide reported pIC50 for "C=CCOc1ccc(C[C@@H](C=O)NC(=O)c2cc(C)nn2-c2ccccn2)cc1" ? Thanks!
A. > 5.52

Q. Using the record for NC(=O)C(=O)C(Cc1ccccc1)NC(=O)c1c(Cl)cnn1-c1ccccc1 (stereo not shown) , state its measured pIC50.
A. > 5.52

====

# measured-on: Human Calpain 1/NS1 (Homo sapiens, UniProt P07384)
# Sequence (P07384 whole entry, one chain of several): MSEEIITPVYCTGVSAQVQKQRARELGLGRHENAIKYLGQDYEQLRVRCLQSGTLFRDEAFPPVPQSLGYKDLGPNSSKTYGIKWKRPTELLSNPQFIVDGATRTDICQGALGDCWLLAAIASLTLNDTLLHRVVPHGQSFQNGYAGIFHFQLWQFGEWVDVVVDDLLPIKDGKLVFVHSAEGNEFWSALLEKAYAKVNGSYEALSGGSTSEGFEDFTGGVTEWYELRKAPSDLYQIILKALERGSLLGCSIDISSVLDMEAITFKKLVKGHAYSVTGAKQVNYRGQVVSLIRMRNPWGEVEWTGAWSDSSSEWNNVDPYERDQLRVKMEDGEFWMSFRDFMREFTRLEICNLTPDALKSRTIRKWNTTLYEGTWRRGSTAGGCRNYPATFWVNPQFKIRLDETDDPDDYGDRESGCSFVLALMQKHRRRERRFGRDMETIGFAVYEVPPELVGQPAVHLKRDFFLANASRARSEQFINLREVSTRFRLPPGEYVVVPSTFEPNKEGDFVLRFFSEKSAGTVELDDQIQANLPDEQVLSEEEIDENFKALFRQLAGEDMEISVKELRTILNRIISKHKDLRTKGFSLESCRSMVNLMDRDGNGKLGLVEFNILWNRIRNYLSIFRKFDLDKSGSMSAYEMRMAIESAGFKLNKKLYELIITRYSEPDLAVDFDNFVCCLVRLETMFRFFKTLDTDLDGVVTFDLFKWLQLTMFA
# protocol-details: Calpain inhibition continuous fluorescence (FRET) assay, Human Calpain 1/NS1
# Assay type: biochemical
pIC50: −log10 of the molar value.
value-kind: pIC50

1) Cc1cc(C(=O)N[C@@H](Cc2ccccc2)C(=O)C(N)=O)n(-c2ccc(CNC(=O)Oc3ccccc3)cc2)n1 | > 5.52

Now take the following compound into account.
Q. Give the measured pIC50 for "Cc1cc(C(=O)N[C@@H](Cc2ccccc2)C(=O)C(N)=O)n(-c2cccc(CNC(=O)Oc3ccccc3)c2)n1"
A. > 5.52

====

Reported IC50 values for a set of compounds
# measured-on: Human Calpain 1/NS1 (Homo sapiens)
# protocol-details: Calpain inhibition continuous fluorescence (FRET) assay, Human Calpain 1/NS1
# Type: biochemical
# test-conditions: read-out: Human Calpain 1/NS1 IC50

1) CCn1cc(C(=O)NC(Cc2ccccc2)C(=O)C(N)=O)c(-c2ccc(F)cc2)n1 (centres unmarked) | < 3 µM
2) NC(=O)C(=O)C(Cc1ccccc1)NC(=O)c1cn(C(F)F)nc1-c1cccc(F)c1 (centres unmarked) | < 3 µM
3) Cn1cc(C(=O)NC(Cc2cc(F)cc(F)c2)C(=O)C(N)=O)c(-c2ccccc2F)n1 (centres unmarked) | < 3 µM
4) Cn1cc(C(=O)N[C@@H](CC(C)(C)C)C(=O)C(N)=O)c(-c2ccccc2)n1 | < 3 µM
5) NC(=O)C(=O)C(Cc1ccccc1)NC(=O)c1cc(C(F)(F)F)nn1-c1ncccn1 (centres unmarked) | < 3 µM

Q. Hello, please tell me recorded IC50 for this one: Cn1cc(C(=O)NC(Cc2ccccc2)C(=O)C(N)=O)c(C2CCCC2)n1 (centres unmarked)
A. < 3 µM

Q. Output IC50 of "NC(=O)C(=O)[C@H](Cc1ccccc1)NC(=O)c1cn(C(F)F)nc1-c1ccccc1"
A. < 3 µM

Q. Identify measured IC50 associated with Cc1ccccc1-c1oncc1C(=O)NC(Cc1ccccc1)C(=O)C(N)=O (centres unmarked)
A. < 3 µM

Q. Retrieve IC50 measured for Cn1cc(C(=O)NC(Cc2ccccc2)C(=O)C(N)=O)c(-c2ccc3c(c2)OC(F)(F)O3)n1 (centres unmarked) and print it.
A. < 3 µM

Q. Give the reported IC50 for this compound. NC(=O)C(=O)C(Cc1ccccc1)NC(=O)C1CCCN1c1ccccc1 (centres unmarked)
A. < 3 µM

Q. Name the recorded IC50 of the compound listed here: NC(=O)C(=O)C(Cc1ccccc1)NC(=O)c1cn(C2CC2)nc1-c1ccccc1 (centres unmarked)
A. < 3 µM

Q. Name the recorded IC50 of the compound listed here: Cn1cc(C(=O)NC(Cc2ccccc2)C(=O)C(N)=O)c(-c2ccc3c(c2)OCO3)n1 (centres unmarked)
A. < 3 µM

Q. Please give the documented IC50 of "Cc1cc(C)cc(C[C@H](NC(=O)c2oc(C)nc2-c2ccccc2)C(=O)C(N)=O)c1"
A. < 3 µM
